These entries and their values trace back to patent US12403137B2.

Record form. Attribute: IC50. Fill in for each entry.
System: HAP1 MTAP-deleted cell line
protocol_notes: SDMA in-cell western assay, HAP1 MTAP-deleted
Assay type: cell-based
details: Homo sapiens, HAP1 MTAP-deleted (MTAP-null) cell line

For Cc1ncoc1COc1ccc2c(c1)CN[C@H]([C@H](O)CNC(=O)c1ccc3c(c1)CCN(C(=O)c1ccc(Br)cc1)C3)C2 on HAP1 MTAP-deleted cell line, measured IC50 was < 1000 nM

Items follow; give IC50 for each.
1. CC(=O)N1CC(Nc2cc(C(=O)NC[C@@H](O)[C@@H]3Cc4ccc(OCc5ocnc5C)cc4CN3)cc(N3CCCCC3)c2)C1
2. Cn1nccc1COc1ccc2c(c1)CN[C@H]([C@H](O)CNC(=O)c1ccnc(NC3CCC3)c1)C2
3. Cc1ncoc1COc1ccc2c(c1)CN[C@H]([C@H](O)CNC(=O)c1cc(NC3CCC3)nc(N3CCCCC3)c1)C2
4. COCCN(C)c1nc(NC2CC3(CCC3)C2)cc(C(=O)NC[C@@H](O)[C@@H]2Cc3ccc(OCc4ocnc4C)cc3CN2)n1
5. Cc1ncoc1COc1ccc2c(c1)CN[C@H]([C@H](O)CNC(=O)c1cc(NC3CC4(CCC4)C3)ncn1)C2

Out:
["≥ 10000 nM", "< 1000 nM", "< 1000 nM", "< 1000 nM", "< 1000 nM"]

Batch: IC50 for all items listed.
1. CC(=O)N1CC(Nc2cc(C(=O)NC[C@@H](O)[C@@H]3Cc4ccc(OCc5ocnc5C)cc4CN3)nc(N3CC4CCC3C4)n2)C1 (some centres unmarked)
2. Cc1ncoc1COc1ccc2c(c1)CN[C@H]([C@H](O)CNC(=O)c1cc(NC3CCC3)ncc1F)C2
3. Cc1ncoc1COc1ccc2c(c1)CN[C@H]([C@H](O)CNC(=O)c1cccc(-c3ccccn3)c1)C2
4. CC(=O)N1CCN(c2cc(C(=O)NC[C@@H](O)[C@@H]3Cc4ccc(OCc5ocnc5C)cc4CN3)cc(NC3CCC3)n2)CC1

Out:
< 1000 nM
< 1000 nM
1000 to 10000 nM
< 1000 nM

* * *

Tested on: HAP1 MTAP-deleted cell line
protocol_notes: SDMA in-cell western assay, HAP1 MTAP-deleted
Assay type: cell-based
details: Homo sapiens, HAP1 MTAP-deleted (MTAP-null) cell line
pIC50: −log10 of the molar value.
Exercise: state measured pIC50 for each of the compounds provided.

Please give pIC50, item by item, for the list that follows.
1. CCC(=O)N1CCN(c2cc(C(=O)NC[C@@H](O)[C@@H]3Cc4ccc(OCc5ocnc5C)cc4CN3)cc(NC3CCC3)n2)CC1 [Compound 39]
2. COCCN(C)c1nc(NC2CCN(C(C)=O)CC2)cc(C(=O)NC[C@@H](O)[C@@H]2Cc3ccc(OCc4ocnc4C)cc3CN2)n1 [Compound 79]
3. O=C(NC[C@@H](O)[C@@H]1Cc2ccc(OCc3cn[nH]c3)cc2CN1)c1ccc(C(=O)N2CCOCC2)cc1 [Compound 4]
4. CCOc1cc(C(=O)N2C3CCC2COC3)ccc1C(=O)NC[C@@H](O)[C@@H]1Cc2ccc(OCc3ocnc3C)cc2CN1 [Compound 12]
5. CC(=O)N1CC(Nc2cc(C(=O)NC[C@@H](O)[C@@H]3Cc4ccc(OCc5ocnc5C)cc4CN3)cc(N3CCN(C(C)C)CC3)n2)C1 [Compound 67]

Out:
1: > 6.00; 2: > 6.00; 3: 5.00 to 6.00; 4: > 6.00; 5: 5.00 to 6.00

I would be grateful if you could provide pIC50 for each of the following entries.
1. COc1cc(C(=O)NC[C@@H](O)[C@@H]2Cc3ccc(OCc4ocnc4C)cc3CN2)cc(NC2CCC2)n1 [Compound 26]
2. CCOc1nc(N2CCN(C(=O)OC)CC2)ccc1C(=O)NC[C@@H](O)[C@@H]1Cc2ccc(OCc3ocnc3C)cc2CN1 [Compound 17]

Out:
["> 6.00", "> 6.00"]

* * *

measured_on: PRMT5 (Homo sapiens)
Construct: purchased Viva (custom protein)
protocol_notes: PRMT5 inhibition assay with MTA as cofactor
Type: biochemical
details: against PRMT5 with MTA as cofactor
Would you mind telling me the reported IC50 of each entry?

Example entries begin here.
IC50 measured on Cc1ncoc1COc1ccc2c(c1)CN[C@H]([C@H](O)CNC(=O)c1ccnc(Nc3cccnc3)c1)C2 = < 50 nM

For this compound ( Cc1ncoc1COc1ccc2c(c1)CN[C@H]([C@H](O)CNC(=O)c1cc(NC3CCC3)ncn1)C2 ), measured IC50 is < 50 nM

# IC50 (compound: Cc1ncoc1COc1cc2c(cc1F)C[C@@H]([C@H](O)CNC(=O)c1ccnc(NC3CCC3)c1)NC2 ) is < 50 nM

Your task in this section: give IC50 for each listed record.
1. Cc1ncoc1COc1ccc2c(c1)CN[C@H]([C@H](O)CNC(=O)c1ccc(C(=O)N3[C@@H]4CCC[C@H]3COC4)cc1)C2
2. COCCN(C)c1nc(NC2CN(C(C)=O)C2)cc(C(=O)NC[C@@H](O)[C@@H]2Cc3ccc(OCc4ocnc4C)cc3CN2)n1
3. CCOc1cc(C(=O)N2[C@@H]3CCC[C@H]2COC3)ccc1C(=O)NC[C@@H](O)[C@@H]1Cc2ccc(OCc3ccnn3C)cc2CN1
4. Cc1ncoc1COc1ccc2c(c1)CN[C@H]([C@H](O)CNC(=O)c1cc(NC3CCC3)ccn1)C2

Out:
1. 50 to 500 nM
2. < 50 nM
3. 50 to 500 nM
4. < 50 nM

* * *

Tested on: HAP1 MTAP-deleted cell line
protocol_notes: SDMA in-cell western assay, HAP1 MTAP-deleted
Type: cell-based
details: Homo sapiens, HAP1 MTAP-deleted (MTAP-null) cell line
quantity: IC50

The value of IC50 measured for the compound CC(=O)N1CC(Nc2cc(C(=O)NC[C@@H](O)[C@@H]3Cc4ccc(OCc5ocnc5C)cc4CN3)nc(N3CC4CC(C4)C3)n2)C1 [Compound 51] turned out to be < 1 µM

Documented IC50 of Cn1nccc1COc1ccc2c(c1)CN[C@H]([C@H](O)CNC(=O)c1ccc(C(=O)N3[C@@H]4CCC[C@H]3COC4)cc1)C2 [Compound 9] : 1 to 10 µM

Reported IC50 for Cc1ncoc1COc1ccc2c(c1)CN[C@H]([C@H](O)CNC(=O)c1cc(NC3CCC3)nc(N3CCN(C(C)C)CC3)n1)C2 [Compound 63] was < 1 µM

The compound listed as Cc1ncoc1COc1ccc2c(c1)CN[C@H]([C@H](O)CNC(=O)c1ccnc(Nc3cccnc3)c1)C2 [Compound 34] has a reported IC50 of 1 to 10 µM

Data point: CC(=O)N1CC(Nc2cc(C(=O)NC[C@@H](O)[C@@H]3Cc4ccc(OCc5ocnc5C)cc4CN3)nc(N3CC4CCC(C4)C3)n2)C1 [Compound 56] ; IC50 = < 1 µM

Read the next record carefully.
Note to self: IC50 recorded for CC(=O)N1CC(Nc2cc(C(=O)NC[C@@H](O)[C@@H]3Cc4ccc(OCc5ocnc5C)cc4CN3)nc(N3CCCCC3)n2)C1 [Compound 22] was < 1 µM

* * *

measured_on: PRMT5 (Homo sapiens, UniProt O14744)
Construct: purchased Viva (custom protein)
Sequence (O14744 whole entry): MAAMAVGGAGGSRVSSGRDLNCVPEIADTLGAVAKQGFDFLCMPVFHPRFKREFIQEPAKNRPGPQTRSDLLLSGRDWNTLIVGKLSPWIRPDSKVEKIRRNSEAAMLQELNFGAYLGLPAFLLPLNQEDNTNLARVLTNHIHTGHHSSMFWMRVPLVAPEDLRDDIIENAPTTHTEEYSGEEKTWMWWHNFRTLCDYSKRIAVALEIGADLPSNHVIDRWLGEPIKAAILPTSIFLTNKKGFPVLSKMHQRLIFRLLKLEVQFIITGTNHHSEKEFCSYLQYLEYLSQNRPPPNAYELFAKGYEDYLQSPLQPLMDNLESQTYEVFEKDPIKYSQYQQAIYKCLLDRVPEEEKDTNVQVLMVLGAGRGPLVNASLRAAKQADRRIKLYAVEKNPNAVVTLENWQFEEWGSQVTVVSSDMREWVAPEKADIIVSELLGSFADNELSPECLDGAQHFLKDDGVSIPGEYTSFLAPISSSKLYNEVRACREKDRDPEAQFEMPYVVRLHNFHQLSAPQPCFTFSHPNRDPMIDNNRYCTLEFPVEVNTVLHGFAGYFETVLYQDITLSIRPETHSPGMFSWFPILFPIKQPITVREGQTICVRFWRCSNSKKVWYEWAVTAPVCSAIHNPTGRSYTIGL
Sequence (Q9BQA1 whole entry partner): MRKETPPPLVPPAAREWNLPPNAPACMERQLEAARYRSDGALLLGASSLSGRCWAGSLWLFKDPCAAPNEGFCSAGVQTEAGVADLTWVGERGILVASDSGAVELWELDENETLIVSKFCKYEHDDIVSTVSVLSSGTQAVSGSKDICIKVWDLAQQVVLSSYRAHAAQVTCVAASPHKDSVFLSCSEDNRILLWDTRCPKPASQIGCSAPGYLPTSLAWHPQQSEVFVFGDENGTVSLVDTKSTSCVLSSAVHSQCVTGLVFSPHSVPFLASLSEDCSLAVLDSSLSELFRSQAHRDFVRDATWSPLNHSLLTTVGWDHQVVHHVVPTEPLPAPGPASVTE
protocol_notes: PRMT5 inhibition assay with MTA as cofactor
Type: biochemical
details: against PRMT5 with MTA as cofactor
For each record, write down the corresponding IC50.

Summary for this compound, CC(=O)N1CCC(Nc2cc(C(=O)NC[C@@H](O)[C@@H]3Cc4ccc(OCc5ocnc5C)cc4CN3)cc(N3CCCCC3)c2)CC1 [Compound 60] : IC50 is < 0.05 µM

Per the record, Cc1ncoc1COc1ccc2c(c1)CN[C@H]([C@H](O)CNC(=O)c1ccc(C(=O)N3CCOCC3)cc1)C2 [Compound 3] has IC50 of 0.05 to 0.5 µM

response.value for Cc1ncoc1COc1ccc2c(c1)CN[C@H]([C@H](O)CNC(=O)c1cccc(-c3ccccn3)c1)C2 [Compound 25] (field: IC50) = 0.05 to 0.5 µM

For this compound ( COCCN(C)c1cc(C(=O)NC[C@@H](O)[C@@H]2Cc3ccc(OCc4ocnc4C)cc3CN2)cc(NC2CC3(CCC3)C2)n1 [Compound 68] ), measured IC50 is < 0.05 µM

Record IC50 for all entries; do not skip any.
1. CC(=O)N1CC(Nc2cc(C(=O)NCC[C@@H]3Cc4ccc(OCc5ocnc5C)cc4CN3)nc(N3CCCCC3)n2)C1 (single isomer, unassigned) [85**]
2. O=C(NC[C@@H](O)[C@@H]1Cc2ccc(OCc3cn[nH]c3)cc2CN1)c1ccc(C(=O)N2CCOCC2)cc1 [Compound 4]

Out:
1. 0.05 to 0.5 µM
2. 0.05 to 0.5 µM

* * *

System: HAP1 MTAP-deleted cell line
protocol_notes: SDMA in-cell western assay, HAP1 MTAP-deleted
Format: cell-based
details: Homo sapiens, HAP1 MTAP-deleted (MTAP-null) cell line
Hi there, I'd appreciate the recorded IC50 for every entry that follows.

Examples with answers:
// IC50 (HAP1 MTAP-deleted cell line) for O=C(NC[C@@H](O)[C@@H]1Cc2ccc(OCc3cnco3)cc2CN1)c1ccc(C(=O)N2CCOCC2)cc1 = ≥ 10 µM

Observed IC50 on HAP1 MTAP-deleted cell line, entry CC(=O)N1CCC(Nc2cc(C(=O)NC[C@@H](O)[C@@H]3Cc4ccc(OCc5ocnc5C)cc4CN3)cc(N3CCCCC3)n2)CC1 , equals < 1 µM

HAP1 MTAP-deleted cell line data for Cc1ncoc1COc1ccc2c(c1)CN[C@H]([C@H](O)CNC(=O)c1cc(NC3CCC3)nc(N3CCN(C(C)C)CC3)c1)C2 ; its IC50: ≥ 10 µM

More entries:
Response field IC50 (HAP1 MTAP-deleted cell line) for item Cc1ncoc1COc1ccc2c(c1)CN[C@H]([C@H](O)CNC(=O)c1cc(NC3CC4(CCC4)C3)nc(N3CCN(C(C)C)CC3)c1)C2 : < 1 µM
